assay: In vivo pharmacokinetic study in rat plasma; design: species or system Sprague‐Dawley rats; conditions: male, Sprague-Dawley; rat plasma, PO gavage 40 mg kg^−1
ENDPOINT: half-life (min)
Answers are plain numbers, in min.

# input molecule: COc1cccc(N(CCNC(C)=O)c2cccc(CO)c2)c1 [Compound 14] ; wanted: its half-life
19.8

====

experiment: Experimental lipophilicity, shake-flask n-octanol/water; format: physicochemical; conditions: n-octanol/water (MOPS buffer); n-octanol/50 mM MOPS buffer pH 7.4, 25±1 °C; mean±SD of three; read-out: Log D oct,7.4
Criterion: logD meeting or surpassing 3. Met: TRUE. Not met: FALSE.

Record excerpt, results attached:
COMPOUND	CLASS
COc1cccc(N(CCNC(N)=O)c2ccccc2)c1	FALSE
CC(=O)NCCN(c1ccc(F)cc1)c1cccc(C(F)F)c1	TRUE
COc1ccc(-c2ccccc2)c(N(C)CCNC(C)=O)c1	TRUE
COc1cccc(N(CCNC(C)=O)c2cccc(CO)c2)c1	FALSE
COc1cccc(N(CCNC(C)=O)c2cccc(O)c2)c1	FALSE
COc1cccc(N(CCNC(C)=O)CCc2ccccc2)c1	TRUE
CC(=O)NCCN(c1ccc(F)cc1)c1cccc(Br)c1 [Compound 3, reference compound]	TRUE
CCNC(=O)NCCN(c1ccccc1)c1cccc(OC)c1	TRUE

Check the entry CCCNC(=O)NCCN(c1ccccc1)c1cccc(OC)c1 : does logD equal or exceed 3?
TRUE

Check the entry COc1cccc(N(CCNC(C)=O)c2ccsc2)c1 : does logD equal or exceed 3?
FALSE

Check the entry COc1cccc(N(CCNC(C)=O)c2ccncc2)c1 : does logD equal or exceed 3?
FALSE

====

test: Metabolic stability in rat liver microsomes; assay type: in vitro ADME; settings: rat liver microsomes 1 mg protein/mL, 5 μM compound, NADPH-regenerating system, pH 7.4, 37 °C; mean±SD; read-out: t 1/2 Rat LM
Criterion: half-life at 5 μM meeting or surpassing 4 min. Met: Condition met. Not met: Condition not met.

Record excerpt, results attached:
COMPOUND	CLASS
COc1cccc(N(CCNC(C)=O)c2ccccc2)c1 [Compound 2, reference compound]	Condition not met
COc1cccc(N(CCNC(N)=O)c2ccccc2)c1	Condition met
CC(=O)NCCN(c1ccc(F)cc1)c1cccc(C(F)F)c1	Condition met

# next compound below
Check the entry COc1ccc(-c2ccccc2)c(N(C)CCNC(C)=O)c1 : does half-life at 5 μM equal or exceed 4 min?
Condition not met

====

Assay: In vivo pharmacokinetic study in rat plasma
Design: species or system Sprague‐Dawley rats
Settings: male, Sprague-Dawley; rat plasma, IV bolus 5 mg kg^−1
Protocol: To evaluate the in vivo behavior of the two melatonergic ligands 14 and 19, a preliminary pharmacokinetic (PK) study was carried out in male Sprague‐Dawley rats. The compounds were administered as intravenous bolus (IV) or by oral gavage (PO) at doses of 5 or 40 mg kg^−1, respectively. Quantitative analysis was carried out by UPLC/MS/MS and the plasma concentration profiles are shown in Figure 3, while the main PK parameters are listed in Table 4. […]
ENDPOINT: AUC (ng·h/mL)
Give bare numbers, in ng·h/mL.

# input molecule: COc1cccc(N(CCNC(C)=O)c2cccc(CO)c2)c1 ; wanted: its AUC
1110

====

assay: In vivo pharmacokinetic study in rat plasma; set-up: species or system Sprague‐Dawley rats; conditions: male, Sprague-Dawley CD, plasma; rat, PO 40 mg kg^−1 vs IV 5 mg kg^−1; read-out: F (oral bioavailability)
ENDPOINT: bioavailability (%)
Answers are plain numbers, in %.

# input compound: COc1ccc(Br)c(N(C)CCNC(C)=O)c1 ; wanted: its bioavailability
3.6
